// provenance: ChEMBL document CHEMBL4825673

Tested on: Acinetobacter baumannii
experiment.description: Antibacterial activity against Acinetobacter baumannii AR15-4 assessed as inhibition of bacterial growth incubated for 24 hrs by broth microdilution method
Type: functional
measurement.parameters: read-out: MIC100
Positions of bridges follow the written chain, without caps; N, C: chain ends. Non-standard residues stand in square brackets, D forms with d. Residues, ends and D or L forms follow the SMILES beside them. *: point of attachment. Benzoyl(4-Ph) = O=C(c1ccc(-c2ccccc2)cc1)*; Octanoyl = CCCCCCCC(=O)*; Dab = NCC[C@H](N)C(=O)O
endpoint.label: MIC (µg/mL)
Quick reminder: number only, in µg/mL, skip the unit.

CCCCCc1ccc(CN[C@@H](CCN)C(=O)N[C@H](C(=O)N[C@@H](CCN)C(=O)N[C@H]2CCNC(=O)[C@H]([C@@H](C)O)NC(=O)[C@H](CCN)NC(=O)[C@H](CCN)NC(=O)[C@H](CC(C)C)NC(=O)[C@@H](Cc3ccccc3)NC(=O)[C@H](CCN)NC2=O)[C@@H](C)O)cc1 = 0.25
CCCCCCCC(=O)N[C@@H](CCN)C(=O)N[C@H](C(=O)N[C@@H](CCN)C(=O)N[C@H]1CCNC(=O)[C@H]([C@@H](C)O)NC(=O)[C@H](CCN)NC(=O)[C@H](CCN)NC(=O)[C@H](CC(C)C)NC(=O)[C@@H](Cc2ccccc2)NC(=O)[C@H](CCN)NC1=O)[C@@H](C)O (Octanoyl-[Dab]T[Dab][Dab][Dab][dF]L[Dab][Dab]T; lactam 4-C) = 0.06
CC[C@H](C)CCCCC(=O)N[C@@H](CCN)C(=O)N[C@H](C(=O)N[C@@H](CCN)C(=O)N[C@H]1CCNC(=O)[C@H]([C@@H](C)O)NC(=O)[C@H](CCN)NC(=O)[C@H](CCN)NC(=O)[C@H](CC(C)C)NC(=O)[C@@H](Cc2ccccc2)NC(=O)[C@H](CCN)NC1=O)[C@@H](C)OC(=O)[C@@H](N)Cc1ccc(O)cc1 = 0.125

Q: // Input: CC(C)C[C@@H]1NC(=O)[C@@H](Cc2ccccc2)NC(=O)[C@H](CCN)NC(=O)[C@@H](NC(=O)[C@H](CCN)NC(=O)[C@@H](NC(=O)[C@H](CCN)NC(=O)c2ccc(-c3ccccc3)cc2)[C@@H](C)O)CCNC(=O)[C@H]([C@@H](C)O)NC(=O)[C@H](CCN)NC(=O)[C@H](CCN)NC1=O ({Benzoyl(4-Ph)}-[Dab]T[Dab][Dab][Dab][dF]L[Dab][Dab]T; lactam 4-C) . Output its MIC only.
Result: 0.06

Q: Fill in reported MIC for this entry: CC(C)CCCCC(=O)N[C@@H](CCN)C(=O)N[C@H](C(=O)N[C@@H](CCN)C(=O)N[C@H]1CCNC(=O)[C@H]([C@@H](C)O)NC(=O)[C@H](CCN)NC(=O)[C@H](CCN)NC(=O)[C@H](CC(C)C)NC(=O)[C@@H](Cc2ccccc2)NC(=O)[C@H](CCN)NC1=O)[C@@H](C)OC(=O)[C@@H]1CCCN1
Result: 0.03
